system: KM12 colon; assay: NCI tumour cell line growth inhibition, 48 h; in the data active = GI50 below about 0.43 µM; inactive = the rest
Tick one outcome: active, inactive

# outcome recorded in this test, key = NS(=O)(=O)c1cccc(-c2ccc3c(NC(=O)C4CC4)n[nH]c3c2)c1 inactive

# outcome recorded in this test, key = C=C1CC[C@@H]2[C@](C)(COC(C)=O)[C@H](OC(C)=O)CC[C@@]2(C)[C@@H]1CC(Nc1ccc(S(=O)(=O)Nc2nccs2)cc1)C1=CCOC1=O (stereo partly drawn) inactive

# outcome recorded in this test, key = O=C(Nc1cnc(C(F)(F)F)cn1)c1cc(Cl)ccc1O active

# outcome recorded in this test, key = O=C(Nc1ccccc1Cl)c1cccc(NC2=C(Cl)C(=O)N(Cc3ccccc3)C2=O)c1 active

# outcome recorded in this test, key = CCN(CC)CCCC(C)Nc1c(-c2ccccc2)cnc2cc(Cl)ccc12 (stereo not drawn) inactive

# outcome recorded in this test, key = COc1cccc(CC(C)=C(c2ccc(OCCCN(C)C)cc2)c2ccc(OCCCN(C)C)cc2)c1 inactive

# outcome recorded in this test, key = Cc1cccc2c(Nc3ccc(NS(C)(=O)=O)cc3)c3ccc([N+](=O)[O-])cc3nc12 inactive

# outcome recorded in this test, key = COc1ccc(Oc2ccccc2NC(=O)CNC(=O)c2cccc3ccccc23)cc1 inactive

# outcome recorded in this test, key = COc1cc(OC)cc(-c2n/c(=C\c3c(O)[nH]c4ccc(Cl)cc34)cc3c2=Nc2ccccc2-3)c1 inactive

# outcome recorded in this test, key = CCSc1nc(N)c(C#N)c(-c2ccco2)c1C#N inactive

# outcome recorded in this test, key = C[C@H]1c2ccccc2CN1CCCOc1cc2c(cc1OCC1CC1)C1(CCCC1)C(N)=N2 inactive

# outcome recorded in this test, key = Cc1ccc(Sc2oc(-c3ccc(C)cc3)nc2[P+](c2ccccc2)(c2ccccc2)c2ccccc2)cc1 active

# outcome recorded in this test, key = C=C1C(=O)O[C@H]2[C@H]1CC/C(CNC(=O)/C=C/c1ccccc1)=C\CC[C@@]1(C)O[C@@H]21 inactive

* * *

Please respond with reported GI50 for every item in the list.
test system: OVCAR-4 ovarian; experiment: NCI tumour cell line growth inhibition, 48 h

Short answer for CC(=O)OC(C)C(OC(C)=O)C(OC(C)=O)C(/C=C/C1CC=CC(=O)O1)OC(C)=O (centres undefined) : GI50 was 17.2 µM

Short answer for O=c1c(-c2ccccc2)coc2cc(OC/C(=N/O)c3ccc(F)cc3)ccc12 : GI50 was 13.7 µM

Short answer for COc1cc(OC)cc(-c2n/c(=C\c3c(O)[nH]c4ccc(Cl)cc34)cc3c2=Nc2ccccc2-3)c1 : GI50 was 1.76 µM

Short answer for Nc1ccc(-c2nc3ccc(F)cc3s2)cc1 : GI50 was 23.1 µM

Short answer for C=CCCCOC1[C@H](OCc2ccccc2)C(OCc2ccccc2)C(OC)O[C@@H]1CNC(=O)c1cccc(I)c1 (some centres undefined) : GI50 was 14.4 µM

Short answer for CCN1C(=O)N(CC)C2C1NN=c1s/c(=C\c3ccc[nH]3)c(=O)n12 (centres undefined) : GI50 was 1.68 µM

Short answer for C=C1CC[C@@H]2[C@](C)(COC(C)=O)[C@H](OC(C)=O)CC[C@@]2(C)[C@@H]1CC(Nc1ccc(S(=O)(=O)Nc2nccs2)cc1)C1=CCOC1=O (some centres undefined) : GI50 was 4.53 µM

Short answer for O=C1CSC(c2ccccc2O)N1c1nnc(Cn2ccnc2)o1 (centres undefined) : GI50 was 4.51 µM

Short answer for CCC[CH2][Sn]([CH2]CCC)([O]C(=O)/C=C/c1ccccc1F)[O]C(=O)/C=C/c1ccccc1F : GI50 was 1.45 µM

* * *

tested on: CAKI-1 renal; test: NCI tumour cell line growth inhibition, 48 h
metric-name: TGI (µM)
Output spec: scalar in µM, unitless text.

Short answer for O=c1cccc(C#CC#CCCCO)o1 : TGI was 8.17

Short answer for CCN(CC)CCCC(C)Nc1c(Sc2cnc3cc(Cl)ccc3c2NC(C)CCCN(CC)CC)cnc2cc(Cl)ccc12 (stereo not given) : TGI was 2.86

Short answer for O=C1CCC(N2C(=O)c3cccc(NCCCC4CCN(CCNC(=O)c5cc6c(o5)C(=O)c5ccccc5C6=O)CC4)c3C2=O)C(=O)N1 (stereo not given) : TGI was 9.13

* * *

tested on: HOP-62 NSCLC; assay: NCI tumour cell line growth inhibition, 48 h
Please respond with reported TGI for every item in the list.

Entry ONC1=Nc2ccccc2OCc2cc(Br)c(Br)cc2COc2ccccc2N=C1NO , HOP-62 NSCLC data, TGI value: 38.9 µM

Entry N#CC(C#N)=C(N)/C(C#N)=C/c1ccc2[nH]ccc2c1 , HOP-62 NSCLC data, TGI value: > 100 µM

Entry C=C1CC[C@@H]2[C@](C)(COC(C)=O)[C@H](OC(C)=O)CC[C@@]2(C)[C@@H]1CC(Nc1ccc(S(=O)(=O)Nc2nccs2)cc1)C1=CCOC1=O (some centres undefined) , HOP-62 NSCLC data, TGI value: 27.5 µM

Entry CCC[CH2][Sn]([CH2]CCC)([O]C(=O)/C=C/c1ccccc1F)[O]C(=O)/C=C/c1ccccc1F , HOP-62 NSCLC data, TGI value: 4.71 µM

* * *

system: MDA-MB-231 breast; assay: NCI tumour cell line growth inhibition, 48 h
metric-name: TGI (µM)
Output spec: scalar in µM, unitless text.

Short answer for CC/C=C\C/C=C/C=C1/C(=O)C=C[C@@H]1C/C=C\CCCC(=O)OC : TGI was 11.3

Short answer for COc1cccc2c1C(=O)c1c(O)c3c(c(O)c1C2=O)C[C@@](O)(C(=O)CO)C[C@@H]3OC1CC(N2CCOCC2C#N)C(O)C(C)O1 (stereo not given in full) : TGI was 0.000812

* * *

test system: 786-0 renal; assay: NCI tumour cell line growth inhibition, 48 h
Where a SMILES comes first, the peptide text is derived from it. Bridges are numbered along the chain shown (N, C = ends). The star is where a group is joined. Cbz = O=C(OCc1ccccc1)*
Please respond with reported TGI for every item in the list.

Entry O=C(CCc1nc(=S)[nH][nH]1)Nc1cccc(C(F)(F)F)c1 , 786-0 renal data, TGI value: > 100 µM

Entry O=C1CCC2(O)C3Cc4ccc(Oc5nnnn5-c5ccccc5)c5c4C2(CCN3CC2CC2)C1O5 (stereo not given) , 786-0 renal data, TGI value: 41.2 µM

Entry Clc1nc(Nc2nc3ccccc3[nH]2)nc(Cl)c1Cc1ccccc1 , 786-0 renal data, TGI value: > 100 µM

Entry CC(C)=Nn1cnc(C(=N)C#N)c1N , 786-0 renal data, TGI value: > 100 µM

Entry Nc1ncccc1-c1nc2ccc(-c3ccccc3)nc2n1-c1ccc(C2(N)CCC2)cc1 , 786-0 renal data, TGI value: 1.6 µM

Entry Cn1c2c(c3ccccc31)CCN1C(=O)C3SC21C1C(=O)N(c2ccccc2)C(=O)C31 (stereo not given) , 786-0 renal data, TGI value: > 100 µM

Entry COC(=O)C1CCCCNC(=O)CCC(NC(=O)OCc2ccccc2)C(=O)N1 (stereo not drawn) (Cbz-Glu-Lys-OMe; lactam 1-2; configuration not given here) , 786-0 renal data, TGI value: > 100 µM

Entry Brc1cccc(-c2cc(-c3ccc4nccnc4c3)[nH]n2)c1 , 786-0 renal data, TGI value: > 250 µM

Entry O=C(Nc1cnc(C(F)(F)F)cn1)c1cc(Cl)ccc1O , 786-0 renal data, TGI value: 15.9 µM

Entry O/N=C1/C2CC3CC1(c1ccccc1)CC(/C3=N/O)/C2=N\O (stereo not given) , 786-0 renal data, TGI value: > 100 µM

* * *

system: BT-549 breast; test: NCI tumour cell line growth inhibition, 48 h
Please respond with reported log10 of TGI for every item in the list.
Lab note - TGI converted to log10 from values in µM.

Short answer for O=C1CCC(N2C(=O)c3cccc(NCCCC4CCN(CCNC(=O)c5cc6c(o5)C(=O)c5ccccc5C6=O)CC4)c3C2=O)C(=O)N1 (centres undefined) : log10 of TGI was 0.33

Short answer for N/C(=N\c1nc2ccccc2s1)NC(=NC1CCCCC1)NC1CCCCC1 : log10 of TGI was 0.51

Short answer for Oc1c(Cl)cc(Cl)c2cccnc12 : log10 of TGI was 1.72

Short answer for CCn1c2ccc(O)c(C(=O)OC)c2c2cc3ccccc3c(O)c21 : log10 of TGI was 1.71

Short answer for Cc1cc(O)ccc1C1(c2ccc(F)cc2)OC(=O)c2ccccc21 (centres undefined) : log10 of TGI was -0.19

Short answer for O=C(O)COc1ccc(C(=O)/C(SS/C(C(=O)c2ccc(OCC(=O)O)c(Cl)c2Cl)=C2\C=C(c3ccc(Br)cc3)SS2)=C2/C=C(c3ccc(Br)cc3)SS2)c(Cl)c1Cl : log10 of TGI was 1.83

Short answer for Cc1cc(NC(=O)c2cnc(N3CCN(CCOCCOCCOCCOCCC(=O)N[C@H](C(=O)N4C[C@H](O)C[C@H]4C(=O)N[C@@H](C)c4ccc(-c5scnc5C)cc4)C(C)(C)C)CC3)cn2)c2ncccc2c1 : log10 of TGI was 0.57

Short answer for O=C1/C(=C/c2cccc(Br)c2)COc2ccc(O)c(O)c21 : log10 of TGI was 0.64

Short answer for CCN(CC)CCC(CNc1c(C)cnc2cc(Cl)ccc12)c1ccc(Cl)cc1 (centres undefined) : log10 of TGI was 1.40
